This listing pairs molecules with measured ka.
# measured on: T1, human ARG2 (Homo sapiens, UniProt P78540, E275H/R327K)
# T1 construct: His10 (after a GGG linker) (C); made in house; host or cells: E. coli BL21 (DE3)
# T1 sequence (P78540 23-354 E275H/R327K): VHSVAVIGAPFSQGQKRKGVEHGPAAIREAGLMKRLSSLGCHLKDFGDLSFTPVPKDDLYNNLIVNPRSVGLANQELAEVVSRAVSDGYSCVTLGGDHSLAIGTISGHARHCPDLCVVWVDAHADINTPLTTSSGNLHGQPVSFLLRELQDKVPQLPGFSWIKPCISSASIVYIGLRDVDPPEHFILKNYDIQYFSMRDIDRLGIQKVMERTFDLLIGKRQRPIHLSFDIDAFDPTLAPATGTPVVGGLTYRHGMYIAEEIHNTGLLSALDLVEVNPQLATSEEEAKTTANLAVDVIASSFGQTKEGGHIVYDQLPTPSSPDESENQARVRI
# measurement notes: Bio-Layer Interferometry (OctetRED) binding kinetics, human ARG2
# experimental context: Fab as analyte; streptavidin capture; analyte 1.8 to 120 nM; affinity-matured antibodies
Give just the number in M⁻¹ s⁻¹; leave the unit off.

-- ask Which ka value belongs to C0021133: anti-ARG2 antibody, VH SEQ ID NO: 192, VL SEQ ID NO: 197 (antibody, listed as Homo sapiens, V domains shown, C0021133) VH: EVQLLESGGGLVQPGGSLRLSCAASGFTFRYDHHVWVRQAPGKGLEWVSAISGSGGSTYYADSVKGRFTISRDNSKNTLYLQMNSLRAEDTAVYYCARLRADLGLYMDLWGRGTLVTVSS VL: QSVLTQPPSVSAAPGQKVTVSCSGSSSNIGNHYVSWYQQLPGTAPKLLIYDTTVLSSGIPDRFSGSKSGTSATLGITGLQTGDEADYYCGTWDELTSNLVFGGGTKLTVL ?
-- reply 219000

Continue with the next molecule.
-- ask Return reported ka; argument: C0021141 Fab (antibody, V domains shown) VH: EVQLLESGGGLVQPGGSLRLSCAASGFTFYPDPQGWVRQAPGKGLEWVSAYGYGIGSTYYADSVKGRFTISRDNSKNTLYLQMNSLRAEDTAVYYCARLRADLGLYMDLWGRGTLVTVSS VL: QSVLTQPPSVSAAPGQEVTISCSGSSSNIDNHYVSWYQQLPGTAPKLLIYDNSERPSGIPDRFSGSKSGTSATLGITGLQTGDEADYYCGTWDSSLSALVFGGGTKLTVL
-- reply 326000
